Values from patent US20080051419A1

Biological target: Akt1 (Homo sapiens, UniProt P31749, S473D)
Construct: The version of Akt used in these studies lacks the pleckstrin homology (PH) domain
Sequence (P31749 118-480 S473D limits assumed, species assumed): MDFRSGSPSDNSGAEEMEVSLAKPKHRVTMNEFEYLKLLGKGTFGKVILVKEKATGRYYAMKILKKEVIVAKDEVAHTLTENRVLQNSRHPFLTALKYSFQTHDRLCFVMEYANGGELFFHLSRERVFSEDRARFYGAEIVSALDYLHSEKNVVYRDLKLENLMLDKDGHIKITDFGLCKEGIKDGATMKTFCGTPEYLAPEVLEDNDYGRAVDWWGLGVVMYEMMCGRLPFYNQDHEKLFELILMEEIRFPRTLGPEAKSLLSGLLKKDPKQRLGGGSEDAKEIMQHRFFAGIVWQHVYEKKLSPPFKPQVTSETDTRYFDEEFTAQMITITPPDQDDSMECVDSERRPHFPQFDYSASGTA
Assay: Akt1 kinase assay, fluorescence polarization (IMAP)
Assay type: biochemical
Settings: Table 1, concentration bins; read-out: Concentration Range at which exemplary compounds of formula I inhibit Akt kinase activity
assay_readout: IC50

1) N#Cc1c[nH]c2ncnc(N3CC[C@](N)(CNC(=O)c4ccc(F)cc4F)C3)c12; 0.00251 to 0.01 µM

Here is another compound to look at.
Lookup: I am curious: what IC50 value has been reported for `N[C@]1(CNC(=O)c2cccc(F)c2Cl)CCN(c2ncnc3[nH]cc(Cl)c23)C1` ?
Found: 0.00251 to 0.01 µM

###

compounds and their reported IC50
Target: Akt1 (Homo sapiens, UniProt P31749, S473D)
Construct: The version of Akt used in these studies lacks the pleckstrin homology (PH) domain
Experiment: Akt1 kinase assay, fluorescence polarization (IMAP)
Format: biochemical
Conditions: Table 1, concentration bins; read-out: Concentration Range at which exemplary compounds of formula I inhibit Akt kinase activity

Use the examples below as a reference point.
1) Cc1c[nH]c2ncnc(N3CC[C@](N)(CNC(=O)c4ccc(Cl)cc4)C3)c12; 10.1 to 100 nM
2) Cc1c[nH]c2ncnc(N3CC[C@](N)(CNC(=O)c4ccccc4)C3)c12; 2.51 to 10 nM
3) Cc1ccccc1C(=O)NC[C@@]1(N)CCN(c2ncnc3[nH]cc(C)c23)C1; 10.1 to 100 nM
4) Cc1c[nH]c2ncnc(N3CCC(N)(CNCC4CC4)C3)c12 (stereo not drawn); 101 to 10000 nM

Lookup: Request the reported IC50 associated with `CCc1c[nH]c2ncnc(N3CC[C@](N)(CNC(=O)c4ccc(Cl)cc4)C3)c12`
Found: 0.25 to 2.5 nM

Lookup: Look up IC50 for this compound: `Cc1c[nH]c2ncnc(N3CC[C@](N)(CNc4cccc(F)c4)C3)c12`
Found: 2.51 to 10 nM

###

Molecular target: Akt1 (Homo sapiens, UniProt P31749, S473D)
Construct: The version of Akt used in these studies lacks the pleckstrin homology (PH) domain
Test: Akt1 kinase assay, fluorescence polarization (IMAP)
Type: biochemical
Conditions: Table 1, concentration bins; read-out: Concentration Range at which exemplary compounds of formula I inhibit Akt kinase activity
Recorded IC50, one value per entry.

1) Cc1c[nH]c2ncnc(N3CC[C@](N)(CNc4ccc(Cl)cc4)C3)c12 [Example 18]; 0.00025 to 0.0025 µM
2) CCCc1c[nH]c2ncnc(N3CC[C@@](N)(CNC(=O)c4cc(C)on4)C3)c12 [Example 95]; 0.00251 to 0.01 µM
3) N#Cc1c[nH]c2ncnc(N3CCC(N)(CNc4cccc5c4CCCC5)C3)c12 (centres unmarked) [Example 38]; 0.00251 to 0.01 µM
4) CCc1c[nH]c2ncnc(N3CC[C@](N)(CNC(=O)c4ccc(F)cc4F)C3)c12 [Example 73]; 0.00025 to 0.0025 µM
5) Cc1c[nH]c2ncnc(N3CC[C@](N)(CNC(=O)c4c(F)ccc(F)c4F)C3)c12 [Example 120]; 0.0101 to 0.1 µM
6) Cc1c[nH]c2ncnc(N3CCC(N)(CN(C)C(=O)c4ccccc4F)C3)c12 (centres unmarked) [Example 197]; 0.101 to 10 µM
7) Cc1c[nH]c2ncnc(N3CCC(N)(CNc4cccc(C(F)(F)F)c4)C3)c12 (centres unmarked) [Example 23]; 0.00251 to 0.01 µM
8) Cc1c(Cl)cccc1NCC1(N)CCN(c2ncnc3[nH]cc(Cl)c23)C1 (centres unmarked) [Example 43]; 0.00025 to 0.0025 µM
9) Cc1c[nH]c2ncnc(N3CCC(N)(CNc4ccccc4S(=O)(=O)N4CC[C@@H](F)C4)C3)c12 (some centres unmarked) [Example 15]; 0.0101 to 0.1 µM
10) Cc1cccc(NC(=O)NCC2(N)CCN(c3ncnc4[nH]cc(C)c34)C2)c1C (centres unmarked) [Example 75]; 0.101 to 10 µM

Lookup: Name the reported IC50 value associated with the compound CCc1c[nH]c2ncnc(N3CC[C@](N)(CNC(=O)c4ccccc4Cl)C3)c12 [Example 128]
Found: 0.0101 to 0.1 µM

Lookup: // query IC50 value for entry Cc1c[nH]c2ncnc(N3CCC(N)(CSc4cccc(C(F)(F)F)c4)C3)c12 (centres unmarked) [Example 66]
Found: 0.101 to 10 µM

Lookup: Entry under review: Cc1c[nH]c2ncnc(N3CCC(N)(CNc4ccccc4Oc4ccccc4)C3)c12 (centres unmarked) [Example 20] . Reported IC50?
Found: 0.0101 to 0.1 µM

Lookup: # IC50 lookup, item CCc1c[nH]c2ncnc(N3CCC(N)(COc4cccc(C)c4)C3)c12 (centres unmarked) [Example 65]
Found: 0.0101 to 0.1 µM
